assay: Quantitative High-Throughput drug screen in 47 multiple myeloma cell lines against the NCATS MIPE library collection: ARD_JJKsccE7 cell viability assay (AID 1918929); settings: ARD myeloma cell line viability, CellTiter-Glo, 48 h; series mostly up to 45.8 µM
Inconclusive results are not listed. Active and inactive are the calls of the source. Calls come from the whole dose curve; as a rule, active = well fitted cell-killing curve with a large enough effect; inconclusive = small, poorly fitted or top-dose-only effect, or effect the other way; inactive = no such curve, though single readings can be large or run the other way.
Outcomes: active, inactive

molecule	class assignment
CCN(CC)C(=O)c1ccc(C2=CC3(CCNCC3)Oc3cccc(O)c32)cc1	inactive
c1cc2c(cc1[C@H]1OC[C@H]3[C@H]1CO[C@H]3c1ccc3c(c1)OCO3)OCO2	inactive
COC(=O)[C@@H](N)CCCN=C(N)N[N+](=O)[O-]	inactive
N=c1c2c(-c3ccccc3)c(-c3ccccc3)n(Cc3ccccc3)c2ncn1C1CCC(O)CC1 (configuration not stated)	active
CC[C@@H]1[C@@H](C)O[C@@](O)([C@@H](C)[C@H](O)[C@H](C)[C@H]2OC(=O)C=CC=C[C@@H](C)[C@@H]([C@@H](C)[C@@H](O)[C@H](C)[C@@]3(O)C[C@H](O[C@H]4C[C@H](O)[C@H](O)[C@H](C)O4)[C@H](CC)[C@@H](C)O3)OC(=O)C=CC=C[C@@H]2C)C[C@H]1O[C@H]1C[C@H](O)[C@H](O)[C@H](C)O1	active
O=S(=O)(CC1CS1)c1ccc(Oc2ccccc2)cc1 (configuration not stated)	inactive
CC[C@H]1C=CC=CC[C@@H](C)[C@H](O)[C@@](C)(O)C(=O)[C@@H](C)[C@H](O)[C@@H](C)C(=O)[C@@H](C)[C@H](O)[C@@H](C)C=CC(=O)O[C@@H]2[C@@H](C)[C@H](CC1)O[C@]1(CC[C@H](C)[C@H](C[C@@H](C)O)O1)[C@H]2C	active
